B1: HEEH_KT_rd6_0790 (parent)
chain: SEEEEEEWRRAKERGEEIIILGILWKPNDEEAERRIKEALRRV

- Variants of: B1
- Assay info: folding stability dG (cDNA display proteolysis); higher = more stable
- Conditions: PBS, room temperature
Entries and their folding stability dG
Respond numerically; units are kcal/mol and should not be typed.

Problem: I have this variant here, W8S , and I need its recorded folding stability dG.
Solution: 0.793

Problem: I have this variant here, V43I , and I need its recorded folding stability dG.
Solution: 2.31

Problem: I have this variant here, N28S , and I need its recorded folding stability dG.
Solution: 1.62

Problem: I have this variant here, E31M , and I need its recorded folding stability dG.
Solution: 1.54

Problem: I have this variant here, E7R , and I need its recorded folding stability dG.
Solution: 2.97

Problem: I have this variant here, E16H , and I need its recorded folding stability dG.
Solution: 1.93
